system: intracellular L. donovani amastigotes (strain Ld1S); experiment: High content assay on intramacrophagic L. donovani amastigotes in primary mouse macrophages; format: cell-based, Leishmania donovani; settings: EC50 (BMDM) versus EC50 (L. donovani Am)
quantity: SI (selectivity index)

• COc1ccc(NS(=O)(=O)c2cc(NC(=O)c3ccc([N+](=O)[O-])s3)ccc2OC)cc1 = > 10
• COc1ccc(Oc2ccc(C(C)N(C)c3ncc4c(N)nc(N)nc4n3)cc2)cc1 (stereo not shown) = > 10
• O=C(Nc1cccc(S(=O)(=O)Nc2ccc(Br)cc2)c1)c1ccc([N+](=O)[O-])s1 = > 10
• O=C(Nc1ccc(S(=O)(=O)N2CCCC2)cc1)c1ccc([N+](=O)[O-])s1 = > 1,5
